Tested on: ATP;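 also: ATP exposure 15 min at 22 °C before imaging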
assay-overview: switch fluorescence ratio, 500 uM ATP over buffer (Cy3 cluster intensity, sum of 5 cycles each) (fold (ratio)); higher = stronger signal-on switching upon ATP binding; sequences stand for … in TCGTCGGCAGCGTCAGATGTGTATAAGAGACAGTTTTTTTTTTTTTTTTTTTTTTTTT…TC
measurement-parameters: aptamer strand: ATP DNA aptamer (quencher-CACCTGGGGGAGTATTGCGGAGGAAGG + anchor), 100 nM annealed; ATP concentration: 500 uM
experimental-endpoint: switch fluorescence ratio
Give the value as a plain number.

Prompt: For the sequence shown here, AATAAGAGGG , give the reported switch fluorescence ratio.
Completion: 1.01

Prompt: For the sequence shown here, GTGAGGTTTT , give the reported switch fluorescence ratio.
Completion: 0.985

Prompt: For the sequence shown here, GGGGTGGGAG , give the reported switch fluorescence ratio.
Completion: 1.01

Prompt: For the sequence shown here, AGTAGGGTGG , give the reported switch fluorescence ratio.
Completion: 0.991

Prompt: For the sequence shown here, CAACATGGAG , give the reported switch fluorescence ratio.
Completion: 0.997

Prompt: For the sequence shown here, TACTTGTTTC , give the reported switch fluorescence ratio.
Completion: 1.01

Prompt: For the sequence shown here, TTGCCGTGTA , give the reported switch fluorescence ratio.
Completion: 1.02

Prompt: For the sequence shown here, GGGGTAAGGC , give the reported switch fluorescence ratio.
Completion: 0.979

Prompt: For the sequence shown here, CTTATTCGAT , give the reported switch fluorescence ratio.
Completion: 0.999

Prompt: For the sequence shown here, AGGCTTTGGG , give the reported switch fluorescence ratio.
Completion: 0.978

Prompt: For the sequence shown here, GAGGCTTAAT , give the reported switch fluorescence ratio.
Completion: 0.982

Prompt: For the sequence shown here, GATAGTTCGC , give the reported switch fluorescence ratio.
Completion: 1.01

Prompt: For the sequence shown here, GTGATAGATT , give the reported switch fluorescence ratio.
Completion: 1

Prompt: For the sequence shown here, GGCTGGCAGT , give the reported switch fluorescence ratio.
Completion: 0.988

Prompt: For the sequence shown here, GGCTAGAGCT , give the reported switch fluorescence ratio.
Completion: 0.982

====

Tested on: ATP;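 also: ATP exposure 15 min at 22 °C before imaging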
assay-overview: switch fluorescence ratio, 500 uM ATP over buffer (Cy3 cluster intensity, sum of 5 cycles each) (fold (ratio)); higher = stronger signal-on switching upon ATP binding; sequences stand for … in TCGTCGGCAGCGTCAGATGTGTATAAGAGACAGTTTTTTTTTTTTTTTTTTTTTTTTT…TC
measurement-parameters: aptamer strand: ATP DNA aptamer (quencher-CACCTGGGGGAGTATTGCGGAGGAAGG + anchor), 100 nM annealed; ATP concentration: 500 uM
Can you tell me switch fluorescence ratio for the items I'm about to list?
Give the value as a plain number.

Prompt: For the sequence shown here, GATGAATGTC , give the reported switch fluorescence ratio.
Completion: 1.04

Prompt: For the sequence shown here, GTTGCAGTTG , give the reported switch fluorescence ratio.
Completion: 1.07

Prompt: For the sequence shown here, CCAAGGGGGA , give the reported switch fluorescence ratio.
Completion: 1.09

Prompt: For the sequence shown here, TTTATTGGTG , give the reported switch fluorescence ratio.
Completion: 1.03

====

System: ATP;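 also: ATP exposure 15 min at 22 °C before imaging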
assay-overview: switch fluorescence ratio, 500 uM ATP over buffer (Cy3 cluster intensity, sum of 5 cycles each) (fold (ratio)); higher = stronger signal-on switching upon ATP binding; sequences stand for … in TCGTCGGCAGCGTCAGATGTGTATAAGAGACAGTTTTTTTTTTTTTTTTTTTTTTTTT…TC
measurement-parameters: aptamer strand: ATP DNA aptamer (quencher-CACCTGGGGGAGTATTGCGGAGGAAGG + anchor), 100 nM annealed; ATP concentration: 500 uM
Can you tell me switch fluorescence ratio for the items I'm about to list?
Give the value as a plain number.

Prompt: For the sequence shown here, TTAGACTTAT , give the reported switch fluorescence ratio.
Completion: 1.01

Prompt: For the sequence shown here, CCATAGAGAA , give the reported switch fluorescence ratio.
Completion: 1.02

Prompt: For the sequence shown here, TTAACGAACG , give the reported switch fluorescence ratio.
Completion: 1.15

Prompt: For the sequence shown here, GGAAAAATGT , give the reported switch fluorescence ratio.
Completion: 1.01

Prompt: For the sequence shown here, GTTGTACGAG , give the reported switch fluorescence ratio.
Completion: 0.982

Prompt: For the sequence shown here, GCAGTAAAGC , give the reported switch fluorescence ratio.
Completion: 1.03

Prompt: For the sequence shown here, TTTAGAAAGT , give the reported switch fluorescence ratio.
Completion: 1.03

Prompt: For the sequence shown here, ACTTTCCACA , give the reported switch fluorescence ratio.
Completion: 1.17

Prompt: For the sequence shown here, CCCGGGAGTG , give the reported switch fluorescence ratio.
Completion: 1.02

Prompt: For the sequence shown here, CCAGGGGCGA , give the reported switch fluorescence ratio.
Completion: 1.75

Prompt: For the sequence shown here, ACGGGGTGTC , give the reported switch fluorescence ratio.
Completion: 1.08

Prompt: For the sequence shown here, CCGGGGGCGA , give the reported switch fluorescence ratio.
Completion: 2.64

Prompt: For the sequence shown here, AAATAGTCTG , give the reported switch fluorescence ratio.
Completion: 0.972

Prompt: For the sequence shown here, TTAATAATGG , give the reported switch fluorescence ratio.
Completion: 0.979

Prompt: For the sequence shown here, GGGCAGACGT , give the reported switch fluorescence ratio.
Completion: 0.971

Prompt: For the sequence shown here, GGAAAGACGA , give the reported switch fluorescence ratio.
Completion: 1.01

Prompt: For the sequence shown here, AAATAACTAC , give the reported switch fluorescence ratio.
Completion: 1.08

Prompt: For the sequence shown here, ATTTTAGAAC , give the reported switch fluorescence ratio.
Completion: 1.01

Prompt: For the sequence shown here, CGTGCTATTC , give the reported switch fluorescence ratio.
Completion: 1.23

Prompt: For the sequence shown here, ATGGACGCCT , give the reported switch fluorescence ratio.
Completion: 1.01

Prompt: For the sequence shown here, TGGGAGGAAA , give the reported switch fluorescence ratio.
Completion: 1.01

Prompt: For the sequence shown here, CTTGACGGTT , give the reported switch fluorescence ratio.
Completion: 1.01

Prompt: For the sequence shown here, TTGGTTTTAT , give the reported switch fluorescence ratio.
Completion: 1.02

Prompt: For the sequence shown here, ATTGATAGCA , give the reported switch fluorescence ratio.
Completion: 1.03

Prompt: For the sequence shown here, CGATGAGGGT , give the reported switch fluorescence ratio.
Completion: 1.01

Prompt: For the sequence shown here, AAGAAGGTTG , give the reported switch fluorescence ratio.
Completion: 0.985

Prompt: For the sequence shown here, CTTGGAGGGG , give the reported switch fluorescence ratio.
Completion: 1.02

Prompt: For the sequence shown here, TAGAAAAGCA , give the reported switch fluorescence ratio.
Completion: 0.997

Prompt: For the sequence shown here, CTGGGGAGGC , give the reported switch fluorescence ratio.
Completion: 1.06

Prompt: For the sequence shown here, TAGTGTTGGT , give the reported switch fluorescence ratio.
Completion: 0.975
